Reported Ki by item:
experimental.system: c-Met (Homo sapiens)
Sequence (P08581 25-1390): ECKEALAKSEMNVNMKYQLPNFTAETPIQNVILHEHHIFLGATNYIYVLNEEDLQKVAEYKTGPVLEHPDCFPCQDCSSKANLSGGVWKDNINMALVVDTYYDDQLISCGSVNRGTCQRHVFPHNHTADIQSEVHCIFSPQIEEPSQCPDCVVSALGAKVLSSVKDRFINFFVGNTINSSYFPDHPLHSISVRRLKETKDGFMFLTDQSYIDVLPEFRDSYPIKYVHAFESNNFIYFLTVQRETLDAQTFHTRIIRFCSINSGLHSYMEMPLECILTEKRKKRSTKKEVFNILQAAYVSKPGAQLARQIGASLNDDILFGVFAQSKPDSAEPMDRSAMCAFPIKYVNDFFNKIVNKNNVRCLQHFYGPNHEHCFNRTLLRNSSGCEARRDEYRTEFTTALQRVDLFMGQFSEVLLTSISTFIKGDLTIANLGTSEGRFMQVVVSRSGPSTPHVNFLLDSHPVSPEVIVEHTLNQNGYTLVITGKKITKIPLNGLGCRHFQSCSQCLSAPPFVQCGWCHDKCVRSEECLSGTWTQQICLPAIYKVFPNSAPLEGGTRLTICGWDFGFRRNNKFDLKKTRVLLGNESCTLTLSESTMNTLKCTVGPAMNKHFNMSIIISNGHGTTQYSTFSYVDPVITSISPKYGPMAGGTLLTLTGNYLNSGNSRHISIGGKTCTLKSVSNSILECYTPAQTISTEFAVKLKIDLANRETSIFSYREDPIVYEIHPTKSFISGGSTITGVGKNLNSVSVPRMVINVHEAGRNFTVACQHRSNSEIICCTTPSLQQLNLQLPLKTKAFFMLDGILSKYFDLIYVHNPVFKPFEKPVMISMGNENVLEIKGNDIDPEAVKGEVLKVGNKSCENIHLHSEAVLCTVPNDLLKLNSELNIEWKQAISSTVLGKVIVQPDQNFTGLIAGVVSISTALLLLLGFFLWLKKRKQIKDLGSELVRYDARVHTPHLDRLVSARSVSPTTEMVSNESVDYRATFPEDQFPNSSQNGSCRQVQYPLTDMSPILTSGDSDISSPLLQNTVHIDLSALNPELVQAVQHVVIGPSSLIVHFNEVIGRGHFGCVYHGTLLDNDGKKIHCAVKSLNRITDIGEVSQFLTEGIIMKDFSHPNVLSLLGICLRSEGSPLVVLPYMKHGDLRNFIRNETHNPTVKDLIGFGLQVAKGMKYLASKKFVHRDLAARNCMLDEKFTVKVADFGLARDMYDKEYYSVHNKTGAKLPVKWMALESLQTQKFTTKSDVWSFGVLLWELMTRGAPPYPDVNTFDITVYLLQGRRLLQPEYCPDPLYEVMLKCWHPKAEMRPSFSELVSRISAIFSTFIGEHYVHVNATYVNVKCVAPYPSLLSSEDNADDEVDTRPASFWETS
protocol.details: Ki determination for the inhibition of c-Met kinase activity (standard coupled enzyme system)
Assay type: biochemical
condition.context: coupled enzyme system, 200 μM ATP, 10 μM polyGluTyr, 80 nM c-Met, 30° C.; read-out: c-Met Ki

{"molecule": "Oc1cccc(CCc2nnc3sc(Nc4cccc(F)c4F)nn23)c1 [Compound 121]", "experimental.system": "c-Met (Homo sapiens)", "Ki": "> 2000 nM"}
{"molecule": "C[C@@H](c1ccc(OC(=O)[C@@H](C)N)cc1)c1nnc2sc(Nc3cccc(F)c3)nn12 [Compound 166]", "experimental.system": "c-Met (Homo sapiens)", "Ki": "< 100 nM"}
{"molecule": "C[C@@H](c1ccc(O)cc1)c1nnc2sc(Nc3cccc(Cl)c3)nn12 [Compound 116]", "experimental.system": "c-Met (Homo sapiens)", "Ki": "< 100 nM"}
{"molecule": "COc1cccc(Nc2ccc3nnc(Cc4ccncc4)n3n2)c1 [Compound 244]", "experimental.system": "c-Met (Homo sapiens)", "Ki": "> 2000 nM"}
{"molecule": "Oc1ccc(Cc2nnc3ccc(NC4CCCC4)nn23)cc1 [Compound 269]", "experimental.system": "c-Met (Homo sapiens)", "Ki": "100 to 2000 nM"}
{"molecule": "Oc1ccc(Cc2nnc3sc(Nc4ccc(C(F)(F)F)cc4)nn23)cc1 [Compound 43]", "experimental.system": "c-Met (Homo sapiens)", "Ki": "< 100 nM"}
{"molecule": "OC[C@H](Cc1ccccc1)Nc1ccc2nnc(Cc3ccc(O)cc3)n2n1 [Compound 191]", "experimental.system": "c-Met (Homo sapiens)", "Ki": "> 2000 nM"}
{"molecule": "Oc1ccc(Cc2nnc3ccc(NC4CC5CCC4C5)nn23)cc1 (stereo not drawn) [Compound 275]", "experimental.system": "c-Met (Homo sapiens)", "Ki": "< 100 nM"}
{"molecule": "CN1CCC(Nc2ccc3nnc(Cc4ccc(O)cc4)n3n2)CC1 [Compound 283]", "experimental.system": "c-Met (Homo sapiens)", "Ki": "100 to 2000 nM"}
